Assay: Pharmacokinetic study, oral administration, mouse
Assay type: in vivo, CD-1 mice
Conditions: plasma, 10 mg/kg, 10 mpk
Test readout: AUC(0-t)

I would be grateful if you could share the reported AUC(0-t) for [2H]C([2H])([2H])CC(=O)c1cnc(NC(=O)C2CC2)cc1Nc1cccc(-c2cnc(N=S(C)(C)=O)cn2)c1OC [Compound of formula (I)] .
76 µM·h

###

Assay: Pharmacokinetic study, oral administration, dog
Type: in vivo
Conditions: plasma, 25 mg/kg, 25 mpk
Test readout: Tmax (h)
Field format: number, assumed h, no unit text.

I would be grateful if you could share the reported Tmax for [2H]C([2H])([2H])CC(=O)c1cnc(NC(=O)C2CC2)cc1Nc1cccc(-c2cnc(N=S(C)(C)=O)cn2)c1OC .
2
